test system: Nrf2; test: Evaluation of Nrf2 activation ability (Nrf2d-LacZ / Keap1 HEK293 reporter, Beta-Glo luminescence); type: cell-based, human; details: rated A/B/C, Pharmacological Test Example 1
Here the recorded EC50 is given for each entry.

Known results for compounds:
[[record]]
compound = "N#Cc1ccc(-c2ccc3c(cnn3-c3cc(O)n[s+]3[O-])c2)nc1 (stereo not drawn) [Example 108]"
outcomemeasure = "EC50"
result = "1000 to 5000 nM"

[[record]]
compound = "[O-][s+]1nc(O)cc1-n1ncc2cc(-c3cncc(N4CCCCC4)c3)ccc21 (stereo not drawn) [Example 153]"
outcomemeasure = "EC50"
result = "< 1000 nM"

[[record]]
compound = "Cc1nn(-c2cc(O)n[s+]2[O-])c(C)c1C1=CCN(C(=O)OC(C)(C)C)CC1 (stereo not drawn) [Example 313]"
outcomemeasure = "EC50"
result = "5000 to 10000 nM"

[[record]]
compound = "O=C(C1CC1(F)F)N1CCOc2cc(-c3ccc4c(cnn4-c4cc(O)n[s+]4[O-])c3)cnc21 (stereo not drawn) [Example 151]"
outcomemeasure = "EC50"
result = "< 1000 nM"

[[record]]
compound = "[O-][s+]1nc(O)cc1-n1ncc2nc(-c3ccc(N4CCCC4)nc3)ccc21 (stereo not drawn) [Example 240]"
outcomemeasure = "EC50"
result = "1000 to 5000 nM"


Query: Given [O-][s+]1nc(O)cc1-n1ncc2ccc(C(F)(F)F)cc21 (stereo not drawn) [Example 33] , respond with its EC50.
Response: 1000 to 5000 nM

Query: Indicate its recorded EC50; the compound in question is Cn1cc2c(-c3ccc4c(cnn4-c4cc(O)n[s+]4[O-])c3)cccc2n1 (stereo not drawn) [Example 76]
Response: 1000 to 5000 nM

Query: Report EC50, nothing else, for this compound: [O-][s+]1nc(O)cc1-n1ncc2ccc(Cl)cc21 (stereo not drawn) [Example 31]
Response: 1000 to 5000 nM

Query: Name the recorded EC50 of the item O=c1[nH]ccc2cc(-c3ccc4c(cnn4-c4cc(O)n[s+]4[O-])c3)ccc12 (stereo not drawn) [Example 64] in your answer.
Response: 1000 to 5000 nM

Query: Identify measured EC50 corresponding to [O-][s+]1nc(O)cc1-n1ncc2cc(-c3ccc(C(F)(F)F)cn3)ccc21 (stereo not drawn) [Example 132]
Response: < 1000 nM

Query: Let me know recorded EC50 for CN1C(=O)C(C)(C)Oc2cc(-c3ccc4c(cnn4-c4cc(O)n[s+]4[O-])c3)cnc21 (stereo not drawn) [Example 187] , thanks.
Response: < 1000 nM

Query: Supply reported EC50 belonging to this compound: [O-][s+]1nc(O)cc1-n1ncc2cc(-c3cccc(F)c3)ccc21 (stereo not drawn) [Example 84]
Response: < 1000 nM

Query: Could you please provide reported EC50 for CN(C)c1ccc(-c2ccc3c(cnn3-c3cc(O)n[s+]3[O-])c2)cn1 (stereo not drawn) [Example 136] ? Thanks!
Response: < 1000 nM

====

system: Nrf2; experiment: Evaluation of Nrf2 activation ability (Nrf2d-LacZ / Keap1 HEK293 reporter, Beta-Glo luminescence); assay type: cell-based, human; conditions: rated A/B/C, Pharmacological Test Example 1
Quick list: EC50 per entry.

For orientation, consider the following solved cases.
[[record]]
compound = "CN(C(=O)N1CCC(c2ccc3c(cnn3-c3cc(O)n[s+]3[O-])c2)CC1)c1ccccc1 (stereo not shown)"
testedtarget = "Nrf2"
result = "1 to 5 µM"

[[record]]
compound = "[O-][s+]1nc(O)cc1-n1ncc2cc(OCc3cccnc3)ccc21 (stereo not shown)"
testedtarget = "Nrf2"
result = "1 to 5 µM"

[[record]]
compound = "Cn1cc(-c2ccc3c(cnn3-c3cc(O)n[s+]3[O-])c2)ccc1=O (stereo not shown)"
testedtarget = "Nrf2"
result = "5 to 10 µM"

[[record]]
compound = "COc1cc(-c2cncc(C)c2)c2cnn(-c3cc(O)n[s+]3[O-])c2c1 (stereo not shown)"
testedtarget = "Nrf2"
result = "1 to 5 µM"

[[record]]
compound = "[O-][s+]1nc(O)cc1-n1ncc2nc(-c3ccc(N4CCCCC4)nc3)ccc21 (stereo not shown)"
testedtarget = "Nrf2"
result = "1 to 5 µM"

[[record]]
compound = "COc1cc(-c2ccc3c(cnn3-c3cc(O)n[s+]3[O-])c2)cnc1N(C)C (stereo not shown)"
testedtarget = "Nrf2"
result = "< 1 µM"


Query: Indicate the recorded EC50 value for this compound: COc1nn(-c2cc(O)n[s+]2[O-])c2ccc(-c3cnc4c(c3)OCCN4C)cc12 (stereo not shown)
Response: 1 to 5 µM

Query: Give reported EC50 value for [O-][s+]1nc(O)cc1-n1ncc2c1CCN(CC1CCCCC1)C2 (single isomer, unassigned)
Response: 1 to 5 µM

Query: Give EC50 for [O-][s+]1nc(O)cc1-n1ncc2c(OCc3ccccc3)cccc21 (stereo not shown)
Response: 5 to 10 µM

Query: Tell me measured EC50 for COc1ccc2cnn(-c3cc(O)n[s+]3[O-])c2c1 (stereo not shown) please.
Response: < 1 µM
